Provide the reported z-score of each item.
Assay: HepG2 liver cancer cell viability effects, profiling panel, resazurin fluorescence, 24 h, PK04 Diversity Set (AID 1172); note: test concentration not given here
Conditions: higher = more signal
A bare number is all that is needed in reply.

Tell us which z-score value is on record for C=C(CCCC)/C(=C/C[C@@H](OC(=O)c1ccncc1)c1ccccc1OCCO)c1cnc2ccccc2c1
-0.846

Tell us which z-score value is on record for CC(C)N1C(=O)c2ccccc2[C@@H](C(=O)NC2CC2)[C@@H]1c1ccc(CO)cc1
-0.146

Tell us which z-score value is on record for COC(=O)[C@@]1(Cc2ccccc2N=[N+]=[N-])N=C(c2ccc(OCCCO)cc2)O[C@H]1c1ccccc1N=[N+]=[N-]
-4.43

Tell us which z-score value is on record for Cc1ccc(S[C@]2(C(=O)O)CC(=O)N(C3Cc4ccccc4C3)[C@@H]2c2ccc(CO)cc2)cc1
-0.684

Tell us which z-score value is on record for CN1C(=O)C2C=CC(C(O)c3ccc(F)cc3)N(Nc3ccccc3)C2C1=O (stereo not drawn)
-1.05

Tell us which z-score value is on record for CC(=O)NCCCC[C@@H]1NC(=O)[C@H]2C[C@@H](C(=O)NCCCC[N+](C)(C)C)[C@@H](c3cccc(OCCO)c3)N2C1=O
-0.704

Tell us which z-score value is on record for COc1cccc(/C=C/C=O)c1
0.445

Tell us which z-score value is on record for COC(=O)C(CC#Cc1ccc2c(c1)[C@]1(C(=O)N2)[C@H](C(=O)N2CCN(c3ncccn3)CC2)[C@H]2C(=O)O[C@H](c3ccccc3)[C@H](c3ccccc3)N2[C@@H]1c1ccc(OCCO)cc1)C(=O)OC
-0.589

====

Tested on: PRMT1 (protein arginine N-methyltransferase 1)
Experiment: PRMT1 binders on small-molecule microarrays, primary screen, biochemical, small-molecule microarray, 635 nm fluorescence (AID 1088);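 note: binding of Prmt1 protein to compounds spotted on small-molecule microarray slides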
Conditions: small-molecule microarray binding, higher = more signal
Provide the reported composite z-score of each item.
A bare number is all that is needed in reply.

Tell us which composite z-score value is on record for C=CCN1Cc2ccccc2[C@H]2OC(c3ccc(OCCCO)cc3)=N[C@@]2(CC=C)C1=O
1.53

Tell us which composite z-score value is on record for COCCOC(=O)N1C(=O)[C@@]2(c3cc(C#CC4=CCCCC4)ccc31)[C@H](c1ccc(OCCO)cc1)N1[C@H](c3ccccc3)[C@H](c3ccccc3)OC(=O)[C@H]1[C@@H]2C(=O)N1CCN(c2ncccn2)CC1
1.46

Tell us which composite z-score value is on record for [N-]=[N+]=NCc1ccccc1[C@H]1OC(c2ccc(OCCCO)cc2)=N[C@@]1(CCS(=O)(=O)c1ccccc1)C(=O)NCC(O)CO (stereo partly drawn)
1.56

====

Test: PSAC antagonists in infected red cells, primary screen, cell-based, P. falciparum Indochina, OD700, 1 h (AID 1154)
Details: P. falciparum Indochina infected RBC osmotic lysis, called active from +8 up or from −8 down
The source made the active and inactive calls.
One label from this list, please: true (1) = active, false (0) = inactive

Could you please tell me the result logged for COC(=O)[C@@]1(Cc2ccc(OC)cc2)[C@H]2c3cc(C(=O)N(C)C)n(C[C@H](O)CO)c3C[C@H]2CN1C(=O)c1ccccc1 in this assay?
false (0)

Could you please tell me the result logged for CN(C)C(=O)[C@]1(CCS(=O)(=O)c2ccccc2)N=C(c2ccc(OCCCO)cc2)O[C@@H]1c1ccccc1N=[N+]=[N-] in this assay?
true (1)

Could you please tell me the result logged for COCCOC(=O)N1C(=O)[C@@]2(c3cc(C#Cc4ccc(OC)cc4)ccc31)[C@H](c1ccccc1OCCO)N1[C@H](c3ccccc3)[C@H](c3ccccc3)OC(=O)[C@H]1[C@@H]2C(=O)N1CCCCCCC1 in this assay?
false (0)

Could you please tell me the result logged for C=CCOC(=O)[C@H]1[C@@H]2C(=O)O[C@@H](c3ccccc3)[C@@H](c3ccccc3)N2[C@@H](c2ccc(OCCOC(=O)[C@H]3C[C@H]4C(=O)N[C@@H](CCCCNC(C)=O)C(=O)N4[C@H]3c3ccc(O)cc3)cc2)[C@]12C(=O)Nc1ccccc12 in this assay?
false (0)

Could you please tell me the result logged for CCOC(=O)C[C@H]1[C@H](OC(=O)Cc2ccc3c(c2)OCO3)[C@@H](NC(=O)CC(C)C)c2cc(OCCCO)ccc2N1C(=O)Cc1ccc(OC)cc1 in this assay?
false (0)

Could you please tell me the result logged for CCCCC(O)C1C=CC2C(=O)N(c3ccccc3)C(=O)C2N1Nc1ccc(C(C)C)cc1 (stereo not drawn) in this assay?
false (0)

Could you please tell me the result logged for CCOC(=O)C[C@H]1[C@H](OC(=O)c2cc3ccccc3oc2=O)[C@@H](NC(=O)c2ccc(-c3ccccc3)cc2)c2cc(OCCCO)ccc2N1C(=O)c1ccccc1 in this assay?
false (0)

Could you please tell me the result logged for COc1ccc([Si](C)(C)[C@@H]2[C@@H](CC(=O)N3Cc4ccccc4C[C@H]3CO)O[C@]3(C(=O)N(Cc4cccc(N5C(=O)c6cccc7cccc5c67)c4)c4ccccc43)[C@H]2C)cc1 in this assay?
false (0)
